# Volume of tumor (mm^3) (mean ± SD) annotations
# System: human lung cancer cells (A549) subcutaneous xenograft
# Protocol description: lung cancer subcutaneous xenograft animal model, intravenous injection
# Assay type: in vivo, mice (BALB/c-nu/nu)
# Test context: intravenous 60 mg/kg once every other day, 20 days, control 3373.26 ± 581.44
Ends that are not written are not given here. PEG = not defined here
Numeric only. Scale: mm^3

# example entries with known answers
Challenge: Please look up its Volume of tumor (mm^3) (mean ± SD): N24: SEQ ID NO: 1 with substitution A7R, deletion of positions 1-2 and of position 18 (VRFLRKENVTQDAED)
Response given: 1099.3

Challenge: Please look up its Volume of tumor (mm^3) (mean ± SD): N9: SEQ ID NO: 1 with deletion of positions 15-18 and PEG modification at the amino terminal ({PEG}-YRVRFLAKENVTQD; reading uncertain)
Response given: 1241.9

Challenge: Please look up its Volume of tumor (mm^3) (mean ± SD): N38: SEQ ID NO: 1 with one amino acid added at each terminal and PEG modification at the carboxyl terminal (FYRVRFLAKENVTQDAEDNC-{PEG}; reading uncertain)
Response given: 927.9

Challenge: Please look up its Volume of tumor (mm^3) (mean ± SD): N3: SEQ ID NO: 1 with deletion of position 18 and PEG modification at the amino terminal ({PEG}-YRVRFLAKENVTQDAED; reading uncertain)
Response given: 1511.56

Let us examine a further case.
Challenge: Please look up its Volume of tumor (mm^3) (mean ± SD): N15: SEQ ID NO: 1 with substitution N18R and addition of one amino acid to the carboxyl terminal (YRVRFLAKENVTQDAEDRC)
Response given: 1307.48
